B1: glmS ribozyme (parent)
chain: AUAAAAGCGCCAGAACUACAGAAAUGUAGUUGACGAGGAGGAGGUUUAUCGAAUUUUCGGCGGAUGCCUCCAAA

Variants of: B1
ASSAY NAME: self-cleavage kobs at 40 uM GlcN6P; higher = faster cleavage; RNA array
MEASUREMENT PARAMETERS: with glucosamine-6-phosphate
Variants at the floor of the assay were thinned out.
Recorded measurements of self-cleavage kobs at 40 uM GlcN6P, one per entry

These recorded examples may help you get a feel for the data.
A6G A15C : < 1e-05 s⁻¹
G9U G29A U30A C67U : < 1e-05 s⁻¹
A15C A36U : < 1e-05 s⁻¹
G29U G41A : < 1e-05 s⁻¹
G13U C50A : < 1e-05 s⁻¹
G43U C71G : < 1e-05 s⁻¹

Measured self-cleavage kobs at 40 uM GlcN6P, G40U C71U : 0.000232 s⁻¹

Measured self-cleavage kobs at 40 uM GlcN6P, A39G G40A A53C : 3.7e-05 s⁻¹

Measured self-cleavage kobs at 40 uM GlcN6P, G32A : 5.63e-05 s⁻¹

Measured self-cleavage kobs at 40 uM GlcN6P, A36U G40A : < 1e-05 s⁻¹

Measured self-cleavage kobs at 40 uM GlcN6P, A33C C71U : < 1e-05 s⁻¹
